Measured max response values are reported for all entries that follow.
# Tested on: NIH3T3
# test: Cytotoxic Profiling of Annotated Libraries Using Quantitative High-Throughput Screening (AID 1296008); further: on the % scale 0 is the no-effect control and ±100 the full control effect; nearly all actives have a fitted effect of over 60% in size
# assay conditions: Five cell lines viability, CellTiter-Glo ATP luminescence, 48-72 h; hits give low values
Records with an inconclusive call do not appear.
attribute measured: max response (%)

> print(dat)
                                    compound  system.under.test  attribute.measured  display.unit  observed.measurement
 1  Nc1ncn([C@@H]2O[C@H](CO)[C@@H](O)[C@H]2O)c(=O)n1             NIH3T3        max response             %                 -10.9
 2  COCCOC(=O)C1=C(C)NC(C)=C(C(=O)OC(C)C)C1c1cccc([N+](=O)[O-])c1 (configuration not stated)             NIH3T3        max response             %                 -6.33
 3      CCCOc1ccccc1-c1nc2n[nH]nc2c(=O)[nH]1             NIH3T3        max response             %                 -1.31
 4        Cc1ccc(/C(=C\CN2CCCC2)c2ccccn2)cc1             NIH3T3        max response             %                  1.95
 5  CCN(Cc1ccncc1)C(=O)C(CO)c1ccccc1 (configuration not stated)             NIH3T3        max response             %                 -10.9
 6       CCn1cc(C(=O)O)c(=O)c2cc3c(cc21)OCO3             NIH3T3        max response             %                 -23.3
 7                CN=C(NC#N)NCCSCc1nc[nH]c1C             NIH3T3        max response             %                -0.832
 8  COc1ccc2c(c1OC)C(=O)O[C@@H]2[C@H]1c2c(cc3c(c2OC)OCO3)CCN1C             NIH3T3        max response             %                -0.798
 9              CN(C)CCCN1c2ccccc2Sc2ccccc21             NIH3T3        max response             %                 -1.44
10  CC(C(=O)O)c1ccc(CC2CCCC2=O)cc1 (configuration not stated)             NIH3T3        max response             %                 -16.1
11  C[C@]12CCC(=O)C=C1CC[C@@H]1[C@@H]2CC[C@@]2(C)[C@H]1CC[C@]2(O)C(=O)CO             NIH3T3        max response             %                 -17.4
12               NC(N)=NC(=O)Cc1c(Cl)cccc1Cl             NIH3T3        max response             %                  3.43
13  O=C(O)CN(CCOCCOCCN(CC(=O)O)CC(=O)O)CC(=O)O             NIH3T3        max response             %                -0.882
14         CCOC(=O)c1cnc2c(cnn2CC)c1NN=C(C)C             NIH3T3        max response             %                 -3.28
15  C[C@@H](O)[C@H]1C(=O)N2C(C(=O)O)=C(SCCN=CN)C[C@H]12             NIH3T3        max response             %                 -19.7
16  CC(=O)[C@@]1(O)CC[C@H]2[C@@H]3CCC4=CC(=O)CC[C@]4(C)[C@H]3CC[C@@]21C             NIH3T3        max response             %                  2.18
17  CCCN(CCC)C(=O)C(CCC(=O)O)NC(=O)c1ccccc1 (configuration not stated)             NIH3T3        max response             %                 -2.14
18     Cc1cc(C)c(/C=C2\C(=O)Nc3ccccc32)[nH]1             NIH3T3        max response             %                 -17.1
19              NC(=O)N1c2ccccc2C=Cc2ccccc21             NIH3T3        max response             %                  2.27
20  CCCNC(C)C(=O)Nc1ccccc1C (configuration not stated)             NIH3T3        max response             %                -0.782
21  NC1=NCC2c3ccccc3Cc3ccccc3N12 (configuration not stated)             NIH3T3        max response             %                 -2.29
22  C[C@]12CC[C@@H]3c4ccc(O)cc4C[C@@H](CCCCCCCCCS(=O)CCCC(F)(F)C(F)(F)F)[C@H]3[C@@H]1CC[C@@H]2O (some centres not stated)             NIH3T3        max response             %                 -7.29
